Each recorded value in this set is attributed to patent US20090068290A1.

# Measurement notes: Pooled metabolic analysis, 6-week studies: body weight
# Test settings: 6-week placebo controlled trials, endpoint, baseline BMI 18.5-25 kg/m^2; BX total doses, RISP 6 mg, OLZ 15 mg, HAL 10 mg
// reported Weight, Mean (SD) change from baseline for each item listed

Completed entries (count: 2):
> print(dat)
                                 smiles.str     meas.value
1  O=c1[nH]c2cccc(N3CCN(Cc4cccc(-c5ccccc5)c4)CC3)c2o1  −0.4 (2.6) kg
2       Cc1cc2c(s1)Nc1ccccc1N=C2N1CCN(C)CC1   2.1 (2.7) kg

Query :: Need Weight, Mean (SD) change from baseline, item "Cc1nc2n(c(=O)c1CCN1CCC(c3noc4cc(F)ccc34)CC1)CCCC2"
Result :: 1.5 (2.2) kg

Query :: Note, next up: "O=C(CCCN1CCC(O)(c2ccc(Cl)cc2)CC1)c1ccc(F)cc1"
Result :: −0.0 (2.2) kg

###

// reported ≧7% weight increase, (%) for each item listed
# Measurement notes: Pooled metabolic analysis, 6-week studies: body weight
# Test settings: 6-week placebo controlled trials, baseline BMI 18.5-25 kg/m^2; BX total doses, RISP 6 mg, OLZ 15 mg, HAL 10 mg
The figure you give is taken to be in %; do not add the unit.

Past entries and their recorded results:
> print(dat)
                                   molecule  meas.value
1  Cc1cc2c(s1)Nc1ccccc1N=C2N1CCN(C)CC1 [OLZ]        22.7
2  O=C(CCCN1CCC(O)(c2ccc(Cl)cc2)CC1)c1ccc(F)cc1 [HAL]         7.1
3  Cc1nc2n(c(=O)c1CCN1CCC(c3noc4cc(F)ccc34)CC1)CCCC2 [RISP]         7.3

Query :: Return reported ≧7% weight increase, (%); argument: O=c1[nH]c2cccc(N3CCN(Cc4cccc(-c5ccccc5)c4)CC3)c2o1 [Bifeprunox]
Result :: 2.4

###

# Measurement notes: Pooled metabolic analysis, 6-week studies: body weight
# Test settings: 6-week placebo controlled trials, endpoint, baseline BMI >25-30 kg/m^2; BX total doses, RISP 6 mg, OLZ 15 mg, HAL 10 mg
As shown below, each of these compounds has a reported Weight, Mean (SD) change from baseline value.

These solved cases illustrate the format of a correct answer.
> print(dat)
                                   compound     meas.value
1  Cc1nc2n(c(=O)c1CCN1CCC(c3noc4cc(F)ccc34)CC1)CCCC2 [RISP]   2.1 (3.2) kg
2  O=C(CCCN1CCC(O)(c2ccc(Cl)cc2)CC1)c1ccc(F)cc1 [HAL]  −1.1 (1.8) kg
3  O=c1[nH]c2cccc(N3CCN(Cc4cccc(-c5ccccc5)c4)CC3)c2o1 [Bifeprunox]  −0.9 (3.2) kg

Consider now this further compound.
Query :: What value of Weight, Mean (SD) change from baseline has been recorded for this entry: Cc1cc2c(s1)Nc1ccccc1N=C2N1CCN(C)CC1 [OLZ]
Result :: 2.3 (2.5) kg

###

# Measurement notes: Pooled metabolic analysis, 6-week studies: body weight
# Test settings: 6-week placebo controlled trials, endpoint, baseline BMI <18.5 kg/m^2; BX total doses, RISP 6 mg, OLZ 15 mg, HAL 10 mg
Property name: Weight, Mean (SD) change from baseline

Query :: State the recorded Weight, Mean (SD) change from baseline for this entry: "Cc1nc2n(c(=O)c1CCN1CCC(c3noc4cc(F)ccc34)CC1)CCCC2"
Result :: 0.9 (2.3) kg
